Target: CHIKV p62-E1 (Chikungunya virus)
Experiment: SPR (Biacore T100), IgG captured by anti-human IgG, p62-E1 injected
result.type: t1/2 (h)

>>> numeric_result("5O14 (antibody, V domains shown) VH: QVQLVQSGGRVVQAGRSLRLSCAASGFTFSMYGVHWVRQAPGKGLEWVAVIWNDGSKEYYGDSVKGRFTISRDNSRNTLYLQMNSLRVDDTAVYFCARDGIPDPERGDYGGLDYWGQGTLVTVSS VL: QTVVTQFPSSPFASVGDGVTITCRARQSISSYVNWYQQKPGKAPKLLIYATSSLQSGVPSRFSGSGYGTDFTLTISGLQPEDFATYYCQQSYSFPRTFGQGTKVEIK")
0.217
>>> numeric_result("8G18 (antibody, V domains shown) VH: QVQLVQSGAQVKKPGSSVKVSCKPSGGTFNNNGISWVRQAPGQGLEWMGGIVPNFGTPTYGQDFQGRVTITADESTSTVFLELTRLRSDDTAVYFCARGRTAVTPMQLGLQFYFDFWGRGTLVTVSS VL: QTVVTQEPSLTVSPGGTVTLTCSANSGAVTSDYYPNWFQQKPGQAPRALIYSASNKFSWTPARFSGSLLGGKAALTLSGAQPEDEAEYYCLVYSGDGVVFGGGTKLTV")
1.03
>>> numeric_result("4N12 (antibody, V domains shown) VH: QVQLVQSGAEVKKPGASVKVSCKVSGYILSKLSVHWVRQAPGKGLEWMGGSEREDGETVYAQKFQGRISLTEDTSIETAYMELSSLSSEDTAVYYCATGGFWSMIGGNGVDYWGQGTLVTVSS VL: QAVVTQSPSSLPASVGDRVTITCRASQDIRNNLGWYQQKPGKAPERLIYGTSNLQSGVPSRFSGSGSGTEFTLTISSLQPEDFATYYCLQHNSYPPTFGRGTKVEIK")
1.63
>>> numeric_result("2D12 (antibody, V domains shown) VH: QVQLVQSGAEVKKPGASVKVSCKASGYSFNIYGISWVRQAPGQGLEWMGWISAYNGNTNYAQKLQGRVTMTTDTSTSTAYMELRSLRSDDTAVYYCARPLWGEFYYDIWGQGTLVTVSS VL: QAVVTQSPGTLSLSPGERATLSCRASQSVSSGYSAWYQQKPGQAPRLLIYGASKRAAGIPDRFSGSGSGTDFTLTISRLEPEDFAVYYCQLFATSPPPFGQGTRLEIK")
0.217
>>> numeric_result("4J21 (antibody, V domains shown) VH: QVQLVQSGSELKKPGASVKVSCKASGYSFTSYSINWVRQAPGQGPEWMGWIDTNTGNPTYAQDFAGRFVFSLDTSVTTAYLQISSLKAGDTAVYYCATYYVDLWGSYRQDYYGMDVWGHGTLVTVSS VL: QSVVTQPPSVSGTPGQGVTISCSGGSSNIGSNPVNWYQMVPGTAPKLLLYTNNQRPSGVPDRFSGSKSGTSASLAINGLQSEDEADYYCAVWDDSLSGRWVFGGGTKLTVL")
3.1

Origin of the recorded values: patent US20180079802A1
